All figures here come from paper PMC2887059.

# Tested on: NF-κB activation (HEK293-NF-κB-Luc cells, PMA/ionomycin)
# Type: cell-based, human
# measurementConditions: HEK293 NF-κB-luciferase reporter
property: NF-κB inhibitory activity (in words)

Use these answered entries as a reference point.
{"columns": ["compound", "property", "result"],
 "data": [
  ["Cc1c(C(C)(C)C)cc(O)cc1C(C)(C)C [Compound 9, 3,5-Di-t-butyl-4-methylphenol, reference compound]", "NF-κB inhibitory activity (in words)", "inactive"],
  ["CC(C)(C)c1cc(C(=O)Cn2c(NCCCO)nc3ccc([N+](=O)[O-])cc32)cc(C(C)(C)C)c1O [Compound 17e]", "NF-κB inhibitory activity (in words)", "inactive"],
  ["Cc1cc2nc(NCCCO)n(CC(=O)c3cccc(OC(C)(C)C)c3)c2cc1C", "NF-κB inhibitory activity (in words)", "completely inactive"],
  ["Cc1cc(Cc2cc(C)cc(C(C)(C)C)c2O)c(O)c(C(C)(C)C)c1 [Compound 10, reference compound]", "NF-κB inhibitory activity (in words)", "inactive"]
]}

**Query** Bench note: what NF-κB inhibitory activity (in words) did Cc1cc2nc(NCCCO)n(CC(=O)c3cccc(C(C)(C)C)c3)c2cc1C show?
**Result** completely inactive
